- Test system: LEGO organoid PTN (PTEN-/-; TP53-/-; NF1-/-)
- test: bioluminescence (viable cell) signal fold change after vs before treatment, normalised to DMSO (ratio); higher = more tumour cell growth / less inhibition
- condition-info: 10 µM; treatment time 6 days
experimental-readout: bioluminescence

Below: 3 molecules and their reported bioluminescence.
1. CN(CCOc1ccc(CC2SC(=O)NC2=O)cc1)c1ccccn1 (stereo not given); 1.22
2. CSc1ccc2c(c1)N(CCC1CCCCN1C)c1ccccc1S2.Cl (stereo not given) [Thioridazine hydrochloride]; 1.56
3. CC(C)NCC(O)COc1ccc(CC(N)=O)cc1 (stereo not given); 0.649

Req: So what does the record say about bioluminescence for CN(Cc1cnc2nc(N)nc(N)c2n1)c1ccc(C(=O)N[C@@H](CCC(=O)O)C(=O)O)cc1 [Methotrexate] ?
Resp: 0.813

Req: Would you kindly share the measured bioluminescence for CC1=NN(c2ccccc2)C(=O)C1 ?
Resp: 1.12

Req: Would you mind telling me what bioluminescence value was observed for CC(=O)Oc1ccccc1C(=O)O ?
Resp: 0.737

Req: Query: bioluminescence; subject: Cl.NCC(=O)CCC(=O)O [5-Aminolevulinic acid hydrochloride]
Resp: 1.19

Req: Requested read-out: bioluminescence. Entry: CCC1=C[C@@H]2CN(C1)Cc1c([nH]c3ccccc13)[C@@](C(=O)OC)(c1cc3c(cc1OC)N(C)[C@H]1[C@@](O)(C(=O)OC)[C@H](OC(C)=O)[C@]4(CC)C=CCN5CC[C@]31[C@@H]54)C2.O=C(O)[C@H](O)[C@@H](O)C(=O)O.O=C(O)[C@H](O)[C@@H](O)C(=O)O [Vinorelbine Tartrate]
Resp: 0.805

====

Recorded bioluminescence by entry
- System: LEGO organoid PTN (PTEN-/-; TP53-/-; NF1-/-)
- test: bioluminescence (viable cell) signal fold change after vs before treatment, normalised to DMSO (ratio); higher = more tumour cell growth / less inhibition
- condition-info: 10 µM; treatment time 6 days
Note: the reply should be a number with no unit written.

Some solved cases for reference:
1) N[C@H](C(=O)O)[C@H](O)c1ccc(O)c(O)c1 [Droxidopa]; 3.13
2) N=C(N)NCCCC[C@@H]1NC(=O)CCSSC[C@@H](C(N)=O)NC(=O)[C@@H]2CCCN2C(=O)[C@H](Cc2c[nH]c3ccccc23)NC(=O)[C@H](CC(=O)O)NC(=O)CNC1=O [Eptifibatide]; 0.917

Req: Query: bioluminescence; subject: O=NN(CCCl)C(=O)NC1CCCCC1 [Lomustine]
Resp: 1.92

Req: Request the reported bioluminescence associated with CCc1c2c(nc3ccc(OC(=O)N4CCC(N5CCCCC5)CC4)cc13)-c1cc3c(c(=O)n1C2)COC(=O)[C@]3(O)CC [Irinotecan]
Resp: 0.884

Req: // bioluminescence lookup, key: Cc1cc(C)nc(NS(=O)(=O)c2ccc(N)cc2)n1 [Sulfamethazine]
Resp: 1.03

Req: Quick one: bioluminescence of Nc1ncnc2c1ncn2[C@@H]1O[C@H](CO)[C@@H](O)[C@H]1O [Adenosine] ?
Resp: 0.654

Req: Fill blank: measured bioluminescence of the molecule Cc1ccccc1C(OCCN(C)C)c1ccccc1.O=C(O)CC(O)(CC(=O)O)C(=O)O (configuration not stated) [Orphenadrine Citrate] is ____.
Resp: 0.98

====

- Tested on: LEGO organoid PTN (PTEN-/-; TP53-/-; NF1-/-)
- test: bioluminescence (viable cell) signal fold change after vs before treatment, normalised to DMSO (ratio); higher = more tumour cell growth / less inhibition
- condition-info: 10 µM; treatment time 6 days
// n strictly below 1 in bioluminescence; y otherwise

Req: Is reported bioluminescence greater than or equal to 1 here: NS(=O)(=O)Cc1noc2ccccc12 [Zonisamide]
Resp: y

Req: For this compound, is measured bioluminescence 1 or higher? CCCNS(=O)(=O)Nc1ncnc(OCCOc2ncc(Br)cn2)c1-c1ccc(Br)cc1
Resp: n

Req: Tell me whether bioluminescence is at least 1 here: NC(=O)N[C@@H](CCC(=O)O)C(=O)O
Resp: y

Req: Form field: bioluminescence at least 1? Entry: OC(Cn1cncn1)(Cn1cncn1)c1ccc(F)cc1F
Resp: y

Req: Answer whether bioluminescence of Cl.Clc1cccc(Cl)c1NC1=NCCN1 [Clonidine hydrochloride] is greater than or equal to 1.
Resp: n

Cited source: the supplement of paper PMC10811239
